# Assay Text: NCI Yeast Anticancer Drug Screen. Data for the mlh1 rad18 strain (AID 175)
# Settings: S. cerevisiae mlh1 rad18 strain growth inhibition; at 50.0 µM
This is part of a sample that, as a whole, favours compounds with a hit. Of some 79,000 tested, about 15% had one in any assay. The source made the active and inactive calls. Cut-off read from the data, not from the text of the source: active = growth inhibition above about 70%; inactive = the rest.
# valid calls are t for active, f for inactive; nothing else

O=c1[nH]c2c([N+](=O)[O-])cc(Cl)cc2nc1/C=C(\O)c1ccncc1 = f
COc1ccc(OC)c(N=Nc2cc(OC)ccc2OC)c1 = f
C(=C\c1ccc(-c2ccccc2)cc1)/c1ccc(-c2ccccc2)cc1 = f
CC[N+](C)(CC)Cc1ccc([NH-])c([NH-])c1.[Cl][Pt+2][Cl] = f

Ask: Any idea what this test logged for CC(=O)OCc1nc2ncnc(N)c2[nH]1 ?
Reply: f

Ask: Any idea what this test logged for Cc1ccc(C(=O)OC2C(OC(=O)Nc3ccccc3)OC(COC(=O)c3ccccc3)C2OC(=O)c2ccccc2)cc1 (stereo unspecified) ?
Reply: f

Ask: Any idea what this test logged for CCOC(=O)[C@H](Cc1ccccc1)NC(=O)c1nc[nH]c1[N+](=O)[O-] ?
Reply: f

Ask: Any idea what this test logged for C1CCC2(CC1)OCCO2 ?
Reply: f

Ask: Any idea what this test logged for CC1(C)CC(=O)C(C(CCC2CCCCC2=O)C2C(=O)CC(C)(C)CC2=O)C(=O)C1 (stereo unspecified) ?
Reply: f

Ask: Any idea what this test logged for CC(C)OCCCN(Cn1c(=S)sc2ccccc21)Cn1c(=S)sc2ccccc21 ?
Reply: f

Ask: Any idea what this test logged for CCOc1ccc(N=Cc2cc(Br)ccc2O)cc1 ?
Reply: f

Ask: Any idea what this test logged for O=C(NCCCl)Nc1ccc2c(c1)CCC2 ?
Reply: f

Ask: Any idea what this test logged for NC(CSS(=O)(=O)O)=NCCCCC1CCCCC1 ?
Reply: f

Ask: Any idea what this test logged for COc1ccc(C(=O)/C=C/c2ccc(OCCSCCCCCCCCCCSCCOc3ccc(/C=C/C(=O)c4ccc(OC)cc4)cc3)cc2)cc1 ?
Reply: f
